A short record of pIC50 observed with Lysine-specific demethylase 5A (Homo sapiens, UniProt P29375) follows.
Sequence (P29375 whole entry): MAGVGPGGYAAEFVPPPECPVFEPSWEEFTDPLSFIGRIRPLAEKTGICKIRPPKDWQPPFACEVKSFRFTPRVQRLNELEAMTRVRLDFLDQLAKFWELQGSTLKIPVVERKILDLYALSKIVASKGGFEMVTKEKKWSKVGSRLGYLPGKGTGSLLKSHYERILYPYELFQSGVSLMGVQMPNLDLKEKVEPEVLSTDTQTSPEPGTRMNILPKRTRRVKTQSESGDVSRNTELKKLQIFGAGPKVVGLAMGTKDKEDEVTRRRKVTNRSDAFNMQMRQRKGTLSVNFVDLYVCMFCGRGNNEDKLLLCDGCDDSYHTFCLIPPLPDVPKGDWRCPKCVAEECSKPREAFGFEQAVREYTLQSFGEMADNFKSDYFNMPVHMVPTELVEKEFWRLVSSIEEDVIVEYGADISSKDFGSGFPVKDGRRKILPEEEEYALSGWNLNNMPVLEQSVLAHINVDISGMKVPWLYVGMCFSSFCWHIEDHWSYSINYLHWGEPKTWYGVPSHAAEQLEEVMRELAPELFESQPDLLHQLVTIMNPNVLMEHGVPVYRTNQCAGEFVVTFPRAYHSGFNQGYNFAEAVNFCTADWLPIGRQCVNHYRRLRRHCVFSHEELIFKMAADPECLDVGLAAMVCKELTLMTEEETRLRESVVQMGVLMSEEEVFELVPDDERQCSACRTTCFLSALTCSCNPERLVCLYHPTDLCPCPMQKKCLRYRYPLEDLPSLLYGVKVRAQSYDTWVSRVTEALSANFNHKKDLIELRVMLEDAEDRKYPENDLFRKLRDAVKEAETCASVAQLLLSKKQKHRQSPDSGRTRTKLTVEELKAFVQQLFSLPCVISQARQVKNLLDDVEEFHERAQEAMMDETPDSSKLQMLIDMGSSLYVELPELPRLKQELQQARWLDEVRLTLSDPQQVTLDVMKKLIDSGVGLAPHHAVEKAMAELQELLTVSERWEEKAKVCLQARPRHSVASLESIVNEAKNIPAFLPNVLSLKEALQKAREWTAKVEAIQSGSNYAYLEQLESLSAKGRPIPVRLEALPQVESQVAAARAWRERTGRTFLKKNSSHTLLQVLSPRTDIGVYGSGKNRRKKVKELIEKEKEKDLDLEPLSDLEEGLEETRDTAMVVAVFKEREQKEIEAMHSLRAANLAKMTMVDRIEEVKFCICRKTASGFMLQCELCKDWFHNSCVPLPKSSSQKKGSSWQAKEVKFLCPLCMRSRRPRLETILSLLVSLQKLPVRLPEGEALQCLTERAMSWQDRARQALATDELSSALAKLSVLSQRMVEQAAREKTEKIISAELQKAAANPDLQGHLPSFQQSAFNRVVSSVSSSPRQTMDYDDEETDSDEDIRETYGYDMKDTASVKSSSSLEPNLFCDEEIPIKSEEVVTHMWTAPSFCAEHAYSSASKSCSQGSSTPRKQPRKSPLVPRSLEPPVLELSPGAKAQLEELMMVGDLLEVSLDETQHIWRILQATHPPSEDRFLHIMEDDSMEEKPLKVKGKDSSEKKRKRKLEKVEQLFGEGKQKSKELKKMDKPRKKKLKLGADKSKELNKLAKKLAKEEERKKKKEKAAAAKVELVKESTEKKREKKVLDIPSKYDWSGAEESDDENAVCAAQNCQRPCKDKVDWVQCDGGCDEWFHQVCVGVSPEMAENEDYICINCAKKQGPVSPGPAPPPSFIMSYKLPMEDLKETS
Friendly reminder that pIC50 comes from taking -log10 of the concentration in mol/L.

COMPOUND	pIC50
O=C(O)c1ccnc(-n2ncc(CCO)c2OCc2ccc(F)cc2)c1	7.10
N#Cc1ccc(COc2ccnn2-c2cc(C(=O)O)ccn2)cc1	8.40

Ask: Requested read-out pIC50, target or system Lysine-specific demethylase 5A (Homo sapiens, UniProt P29375), entry Cc1ccc(COc2ccnn2-c2cc(C(=O)O)ccn2)cc1
Result: 7.49

---

Entries and their IC50 values follow.
- MEASURED_ON: Lysine-specific demethylase 5B (Homo sapiens, UniProt Q9UGL1)
- Sequence (Q9UGL1 whole entry): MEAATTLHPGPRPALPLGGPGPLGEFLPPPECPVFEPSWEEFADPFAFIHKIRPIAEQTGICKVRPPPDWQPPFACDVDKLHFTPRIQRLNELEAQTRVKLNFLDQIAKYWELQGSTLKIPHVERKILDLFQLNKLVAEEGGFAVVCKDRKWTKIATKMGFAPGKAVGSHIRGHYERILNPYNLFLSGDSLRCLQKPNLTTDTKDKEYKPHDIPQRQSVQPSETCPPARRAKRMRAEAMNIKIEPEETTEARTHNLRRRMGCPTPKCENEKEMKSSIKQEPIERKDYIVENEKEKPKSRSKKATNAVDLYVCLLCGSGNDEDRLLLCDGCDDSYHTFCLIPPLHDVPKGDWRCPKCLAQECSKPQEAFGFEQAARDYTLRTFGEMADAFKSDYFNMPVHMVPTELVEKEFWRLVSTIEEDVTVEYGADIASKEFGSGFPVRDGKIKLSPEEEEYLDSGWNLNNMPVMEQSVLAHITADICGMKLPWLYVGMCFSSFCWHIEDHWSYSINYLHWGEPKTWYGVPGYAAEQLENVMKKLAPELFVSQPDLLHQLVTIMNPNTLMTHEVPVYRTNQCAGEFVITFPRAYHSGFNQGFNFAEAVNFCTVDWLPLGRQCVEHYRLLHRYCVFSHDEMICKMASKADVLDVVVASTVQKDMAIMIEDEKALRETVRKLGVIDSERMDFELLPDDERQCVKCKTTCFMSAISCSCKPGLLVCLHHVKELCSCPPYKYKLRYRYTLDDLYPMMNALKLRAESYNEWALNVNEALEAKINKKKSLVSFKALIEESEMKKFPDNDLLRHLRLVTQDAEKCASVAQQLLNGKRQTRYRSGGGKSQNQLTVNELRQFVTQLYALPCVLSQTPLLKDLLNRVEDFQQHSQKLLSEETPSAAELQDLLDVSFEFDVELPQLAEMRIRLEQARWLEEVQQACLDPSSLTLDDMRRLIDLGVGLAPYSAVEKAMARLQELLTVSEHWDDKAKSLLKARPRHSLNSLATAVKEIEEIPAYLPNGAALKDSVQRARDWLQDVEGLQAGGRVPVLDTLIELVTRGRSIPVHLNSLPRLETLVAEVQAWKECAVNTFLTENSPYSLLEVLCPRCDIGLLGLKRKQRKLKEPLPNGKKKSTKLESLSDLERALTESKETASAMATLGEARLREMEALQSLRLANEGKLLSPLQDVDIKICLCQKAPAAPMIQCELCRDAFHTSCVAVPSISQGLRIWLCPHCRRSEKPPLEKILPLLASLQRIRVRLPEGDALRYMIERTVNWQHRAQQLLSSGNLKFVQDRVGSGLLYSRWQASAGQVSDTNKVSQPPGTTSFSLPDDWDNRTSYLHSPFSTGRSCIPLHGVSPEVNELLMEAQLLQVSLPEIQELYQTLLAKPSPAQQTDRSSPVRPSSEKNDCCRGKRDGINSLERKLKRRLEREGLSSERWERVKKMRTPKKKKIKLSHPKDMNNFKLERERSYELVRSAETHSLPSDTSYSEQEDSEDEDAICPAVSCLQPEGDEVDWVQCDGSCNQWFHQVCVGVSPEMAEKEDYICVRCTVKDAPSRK

Example results:
COMPOUND	PARAMETER	REPORTED_RESULT
O=C(O)c1ccnc(-n2nccc2OCc2ccc(Cl)cc2)c1	IC50	4 nM
O=C(O)c1ccnc(-n2nccc2-c2cccc(O)c2)c1	IC50	120 nM
COc1ccc(COc2ccnn2-c2cc(C(=O)O)ccn2)cc1	IC50	4 nM
O=C(O)c1ccnc(-n2nccc2OCc2ccc(Br)cc2)c1	IC50	2 nM
O=C(O)c1ccnc(-n2nccc2OCc2ccc(Cl)cc2OCC2CC2)c1	IC50	6 nM

Next:
Ask: Which IC50 is listed for CC(Oc1ccnn1-c1cc(C(=O)O)ccn1)c1ccc(F)cc1 (stereo unspecified) ?
Result: 41 nM
